test system: HOP-62 multicell spheroids with HUVEC/MSC, viability; assay: Anticancer human tumor HOP-62 cell line growth inhibition [KRAS2]; settings: second compound 0.1 µM; first compound 0.1 µM; active compounds read low;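 also: viability read after a week of compound exposure; 100% = DMSO vehicle-treated spheroids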
Measured viability, T/C, listed per entry for reference.
readoutType: viability, T/C (%)

molecule	readoutType	unitName	resultValue
COc1cc(Nc2ncc3c(n2)-c2ccc(Cl)cc2C(c2c(F)cccc2OC)=NC3)ccc1C(=O)O + C=CC(=O)N1CCN(c2nc(=O)n(-c3c(C)ccnc3C(C)C)c3nc(-c4c(O)cccc4F)c(F)cc23)C(C)C1	viability, T/C	%	29.2
O=C(c1cc(Cc2n[nH]c(=O)c3ccccc23)ccc1F)N1CCN(C(=O)C2CC2)CC1 + COc1cc2nc(C)nc(NC(C)c3cc(N)cc(C(F)(F)F)c3)c2cc1OC1CCOC1	viability, T/C	%	102
CC1(C)CCC(CN2CCN(c3ccc(C(=O)NS(=O)(=O)c4ccc(NCC5CCOCC5)c([N+](=O)[O-])c4)c(Oc4cnc5[nH]ccc5c4)c3)CC2)=C(c2ccc(Cl)cc2)C1 + C=CC(=O)N1CCN(c2nc(OCC3CCCN3C)nc3c2CCN(c2cccc4cccc(C)c24)C3)CC1CC#N	viability, T/C	%	41.4
CC(=O)OC12COC1CC(O)C1(C)C(=O)C(O)C3=C(C)C(OC(=O)C(O)C(NC(=O)OC(C)(C)C)c4ccccc4)CC(O)(C(OC(=O)c4ccccc4)C21)C3(C)C (stereo not given) + CNCc1ccccc1-c1csc(C(C)Nc2nc(C)nc3cc(OC)c(OC)cc23)c1	viability, T/C	%	38.1
CN(C)C/C=C/C(=O)Nc1cc2c(Nc3ccc(F)c(Cl)c3)ncnc2cc1O[C@H]1CCOC1 + CNCc1ccccc1-c1csc(C(C)Nc2nc(C)nc3cc(OC)c(OC)cc23)c1	viability, T/C	%	96.5
